# test: Luminescence activity assay of purified Gaussia luciferase mutants on coelenterazine derivative ZS2
# Assay type: biochemical
# Parameters: key: ratio of mutant luminescence intensity to wild-type Gaussia luciferase
# measurement context: Substrate ZS2 (Table 16)
outcome measure: Activity of mutant relative to wild-type Gaussia luciferase without the signal peptide

Use the examples below as a reference point.
{"molecule": "Q152H S170D Q175E A182Y: Gaussia luciferase mutant (protein, SIGNAL (1)..(17), Gaussia luciferase mutant) MGVKVLFALICIAVAEAKPTENNEDFNIVAVASNFATTDLDADRGKLPGKKLPLEVLKEMEANARKAGCTRGCLICLSHIKCTPKMKKFIPGRCHTYEGDKESAQGGIGEAIVDIPEIPGFKDLEPMEQFIAQVDLCVDCTTGCLKGLANVHCSDLLKKWLPQRCATFADKIQGEVDKIKGYGGD", "reported": 0.723}
{"molecule": "N27Y V29G A30D V31L A32V S33V A36G T37D L40F Y97*: Gaussia luciferase mutant (protein, SIGNAL (1)..(17), Gaussia luciferase mutant) MGVKVLFALICIAVAEAKPTENNEDFYIGDLVVNFGDTDFDADRGKLPGKKLPLEVLKEMEANARKAGCTRGCLICLSHIKCTPKMKKFIPGRCHTEGDKESAQGGIGEAIVDIPEIPGFKDLEPMEQFIAQVDLCVDCTTGCLKGLANVQCSDLLKKWLPQRCATFASKIQGQVDKIKGAGGD", "reported": 0.001}
{"molecule": "Q163T T167S S170V G174N K178N A182Y G183A: Gaussia luciferase mutant (protein, SIGNAL (1)..(17), Gaussia luciferase mutant) MGVKVLFALICIAVAEAKPTENNEDFNIVAVASNFATTDLDADRGKLPGKKLPLEVLKEMEANARKAGCTRGCLICLSHIKCTPKMKKFIPGRCHTYEGDKESAQGGIGEAIVDIPEIPGFKDLEPMEQFIAQVDLCVDCTTGCLKGLANVQCSDLLKKWLPTRCASFAVKIQNQVDNIKGYAGD", "reported": 0.138}
{"molecule": "N27D V29E A30G V31I A32V S33K A36I T37D L40T: Gaussia luciferase mutant (protein, SIGNAL (1)..(17), Gaussia luciferase mutant) MGVKVLFALICIAVAEAKPTENNEDFDIEGIVKNFIDTDTDADRGKLPGKKLPLEVLKEMEANARKAGCTRGCLICLSHIKCTPKMKKFIPGRCHTYEGDKESAQGGIGEAIVDIPEIPGFKDLEPMEQFIAQVDLCVDCTTGCLKGLANVQCSDLLKKWLPQRCATFASKIQGQVDKIKGAGGD", "reported": 1.379}

Okay, now this molecule:
Asked: Query (molecule): K66R P84L E102D S103T E110A V138E: Gaussia luciferase mutant (protein, SIGNAL (1)..(17), Gaussia luciferase mutant) MGVKVLFALICIAVAEAKPTENNEDFNIVAVASNFATTDLDADRGKLPGKKLPLEVLKEMEANARRAGCTRGCLICLSHIKCTLKMKKFIPGRCHTYEGDKDTAQGGIGAAIVDIPEIPGFKDLEPMEQFIAQVDLCEDCTTGCLKGLANVQCSDLLKKWLPQRCATFASKIQGQVDKIKGAGGD ; field requested: Activity of mutant relative to wild-type Gaussia luciferase without the signal peptide
Given back: 3.079
